B1: SFRS1 (parent)
chain: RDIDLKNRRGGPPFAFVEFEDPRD

Variants of: B1
Test: protein stability index of a GFP-peptide fusion (GPS, HEK-293T) (PSI 1-6); higher = more stable;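 also: lentivirally expressed fusions sorted by FACS into six bins by GFP to DsRed ratio, PSI derived from sequencing read proportions per bin multiplied by bin number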
Conditions: c terminus: a fixed tail appended
# label = True if protein stability index >= 4 else False

Could you verify whether the entry RDITLKNRRGGPPFAFVEFEDPRD [D4T] shows protein stability index of no less than 4?
False

Could you verify whether the entry RDIDLKNRRGMPPFAFVEFEDPRD [G11M] shows protein stability index of no less than 4?
False

Could you verify whether the entry RDIDLKNRRGGPPIAFVEFEDPRD [F14I] shows protein stability index of no less than 4?
True

Could you verify whether the entry RDIDLKNRRGGPPFIFVEFEDPRD [A15I] shows protein stability index of no less than 4?
False

Could you verify whether the entry RDIDLQNRRGGPPFAFVEFEDPRD [K6Q] shows protein stability index of no less than 4?
True

Could you verify whether the entry RDIDLKNERGGPPFAFVEFEDPRD [R8E] shows protein stability index of no less than 4?
True

Could you verify whether the entry RDIDPKNRRGGPPFAFVEFEDPRD [L5P] shows protein stability index of no less than 4?
False

Could you verify whether the entry RDIDLKNRRVGPPFAFVEFEDPRD [G10V] shows protein stability index of no less than 4?
False

Could you verify whether the entry RDIDLKNRRGGPPFAFVCFEDPRD [E18C] shows protein stability index of no less than 4?
False

Could you verify whether the entry RDIDLKNRRGGPPFAFAEFEDPRD [V17A] shows protein stability index of no less than 4?
True

Could you verify whether the entry RDIDLKHRRGGPPFAFVEFEDPRD [N7H] shows protein stability index of no less than 4?
False

Could you verify whether the entry RDIDLKNRRGGPPWAFVEFEDPRD [F14W] shows protein stability index of no less than 4?
False

Could you verify whether the entry RDIDLKRRRGGPPFAFVEFEDPRD [N7R] shows protein stability index of no less than 4?
False

Could you verify whether the entry RDIDLKNRRGGPTFAFVEFEDPRD [P13T] shows protein stability index of no less than 4?
True

Could you verify whether the entry RDIDLENRRGGPPFAFVEFEDPRD [K6E] shows protein stability index of no less than 4?
True

Could you verify whether the entry RDIDLKNRRGGPPAAFVEFEDPRD [F14A] shows protein stability index of no less than 4?
True

Could you verify whether the entry RDIDLKNRRGGPPFAFPEFEDPRD [V17P] shows protein stability index of no less than 4?
True

Could you verify whether the entry RDIDLKNRIGGPPFAFVEFEDPRD [R9I] shows protein stability index of no less than 4?
True

Could you verify whether the entry RDIDLKNRRGHPPFAFVEFEDPRD [G11H] shows protein stability index of no less than 4?
False

Could you verify whether the entry RDIDLKNRRGGPSFAFVEFEDPRD [P13S] shows protein stability index of no less than 4?
True

Could you verify whether the entry RDDDLKNRRGGPPFAFVEFEDPRD [I3D] shows protein stability index of no less than 4?
True

Could you verify whether the entry RDIDLKNRRGGPPFAFVEFEDPFD [R23F] shows protein stability index of no less than 4?
False

Could you verify whether the entry RDIDLKNRRGGPPFAFFEFEDPRD [V17F] shows protein stability index of no less than 4?
True

Could you verify whether the entry RDIDIKNRRGGPPFAFVEFEDPRD [L5I] shows protein stability index of no less than 4?
False

Could you verify whether the entry RDIDLKNRRGGPPFAFVEFQDPRD [E20Q] shows protein stability index of no less than 4?
False

Could you verify whether the entry RDIDLKNRRGGPPVAFVEFEDPRD [F14V] shows protein stability index of no less than 4?
True

Could you verify whether the entry RDIDLKNFRGGPPFAFVEFEDPRD [R8F] shows protein stability index of no less than 4?
False

Could you verify whether the entry RDIDLKNRRGGPPFAQVEFEDPRD [F16Q] shows protein stability index of no less than 4?
True

Could you verify whether the entry RDIDLKNMRGGPPFAFVEFEDPRD [R8M] shows protein stability index of no less than 4?
True

Could you verify whether the entry RDIDLKLRRGGPPFAFVEFEDPRD [N7L] shows protein stability index of no less than 4?
False

Could you verify whether the entry RDIDLKNRRGGPPFAFVEFEDPGD [R23G] shows protein stability index of no less than 4?
False

Could you verify whether the entry RDIDLKNRRHGPPFAFVEFEDPRD [G10H] shows protein stability index of no less than 4?
False

Could you verify whether the entry RDIDLKNRRGGPPFAFVEFEDPRQ [D24Q] shows protein stability index of no less than 4?
False

Could you verify whether the entry RDIDLKNRRAGPPFAFVEFEDPRD [G10A] shows protein stability index of no less than 4?
False

Could you verify whether the entry RDIDLKNRRGGPPFAFVEFADPRD [E20A] shows protein stability index of no less than 4?
False

Could you verify whether the entry RDIDLKTRRGGPPFAFVEFEDPRD [N7T] shows protein stability index of no less than 4?
False

Could you verify whether the entry RDIDWKNRRGGPPFAFVEFEDPRD [L5W] shows protein stability index of no less than 4?
False

Could you verify whether the entry RDIDLKNRRGGPRFAFVEFEDPRD [P13R] shows protein stability index of no less than 4?
True

Could you verify whether the entry RGIDLKNRRGGPPFAFVEFEDPRD [D2G] shows protein stability index of no less than 4?
False
